Provide the recorded glycan array binding signal (z-score) for the entries that follow.
# target.system: Neu5Ac(a2-3)[GalNAc(b1-4)]Gal(b1-4)Glc
# assay.protocol: glycan array binding signal (z-score within array); higher = stronger binding
# study.conditions: glycan notation: IUPAC condensed, linker removed
The entries come from a sample that favours the strongest signals as a whole.
One number for each entry.

IRp60B (Homo sapiens), Q9UGN4-3 (protein) MWLPWALLLLWVPAGDHSELSQNPKQAATQSELHYANLELLMWPLQEKPAPPREVEVEYSTVASPREELHYASVVFDSNTNRIAAQRPREEEPDSDYSVIRKT | -0.323

For each of the items listed, what is its glycan array binding signal (z-score)?
1. SP16665A-bot-344-23-344 (Bacteroides ovatus) (protein) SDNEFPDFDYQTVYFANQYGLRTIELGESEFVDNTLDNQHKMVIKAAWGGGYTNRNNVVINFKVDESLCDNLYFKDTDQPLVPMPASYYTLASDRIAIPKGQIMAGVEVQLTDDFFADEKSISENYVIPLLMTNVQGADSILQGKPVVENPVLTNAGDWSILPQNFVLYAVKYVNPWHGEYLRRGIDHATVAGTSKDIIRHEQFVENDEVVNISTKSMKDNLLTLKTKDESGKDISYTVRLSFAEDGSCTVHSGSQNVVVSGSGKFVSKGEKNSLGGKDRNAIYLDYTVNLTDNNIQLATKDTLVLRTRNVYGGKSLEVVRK
2. FBG2 (Homo sapiens), Q9NRD1 (protein) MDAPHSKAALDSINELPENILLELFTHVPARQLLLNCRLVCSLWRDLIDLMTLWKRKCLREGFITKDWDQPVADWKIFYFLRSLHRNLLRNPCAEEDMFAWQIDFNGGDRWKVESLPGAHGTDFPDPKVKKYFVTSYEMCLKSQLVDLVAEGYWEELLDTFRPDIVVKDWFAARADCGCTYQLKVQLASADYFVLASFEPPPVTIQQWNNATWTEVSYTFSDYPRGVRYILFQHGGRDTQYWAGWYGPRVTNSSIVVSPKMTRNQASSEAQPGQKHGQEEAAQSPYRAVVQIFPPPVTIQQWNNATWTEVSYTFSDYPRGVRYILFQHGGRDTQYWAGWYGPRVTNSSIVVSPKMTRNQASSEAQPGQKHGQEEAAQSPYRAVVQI
3. SP8524D-bot-399-27-399 (Bacteroides ovatus) (protein) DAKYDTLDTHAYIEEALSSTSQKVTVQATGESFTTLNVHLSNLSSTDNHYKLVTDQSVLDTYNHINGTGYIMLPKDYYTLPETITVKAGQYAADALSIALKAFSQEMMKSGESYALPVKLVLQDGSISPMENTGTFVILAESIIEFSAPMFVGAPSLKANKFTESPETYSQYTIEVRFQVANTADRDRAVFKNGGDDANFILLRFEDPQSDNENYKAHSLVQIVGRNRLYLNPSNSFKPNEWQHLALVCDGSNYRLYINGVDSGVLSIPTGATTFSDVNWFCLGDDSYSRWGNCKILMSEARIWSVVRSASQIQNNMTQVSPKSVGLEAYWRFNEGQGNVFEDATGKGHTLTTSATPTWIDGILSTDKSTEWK
4. Pp2-A2 (Arabidopsis thaliana), Q07098 (protein) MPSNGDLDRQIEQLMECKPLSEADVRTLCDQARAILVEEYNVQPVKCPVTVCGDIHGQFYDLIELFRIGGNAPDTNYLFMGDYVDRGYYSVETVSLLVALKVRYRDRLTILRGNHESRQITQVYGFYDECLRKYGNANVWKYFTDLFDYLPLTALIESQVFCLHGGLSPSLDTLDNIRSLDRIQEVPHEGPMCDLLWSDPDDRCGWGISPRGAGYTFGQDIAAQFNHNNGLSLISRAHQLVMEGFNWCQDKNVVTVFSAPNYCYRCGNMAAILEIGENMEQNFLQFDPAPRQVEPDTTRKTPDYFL
5. ECL (Erythrina cristagalli), Q6YD91 (protein) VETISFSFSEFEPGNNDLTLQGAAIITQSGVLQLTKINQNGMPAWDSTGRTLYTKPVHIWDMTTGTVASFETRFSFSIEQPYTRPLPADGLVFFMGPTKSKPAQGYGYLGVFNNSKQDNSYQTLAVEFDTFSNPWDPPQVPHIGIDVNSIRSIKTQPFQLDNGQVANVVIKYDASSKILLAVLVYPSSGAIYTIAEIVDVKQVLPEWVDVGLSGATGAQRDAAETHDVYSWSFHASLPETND
6. SP15308B-bot-339-22-339 (Bacteroides ovatus) (protein) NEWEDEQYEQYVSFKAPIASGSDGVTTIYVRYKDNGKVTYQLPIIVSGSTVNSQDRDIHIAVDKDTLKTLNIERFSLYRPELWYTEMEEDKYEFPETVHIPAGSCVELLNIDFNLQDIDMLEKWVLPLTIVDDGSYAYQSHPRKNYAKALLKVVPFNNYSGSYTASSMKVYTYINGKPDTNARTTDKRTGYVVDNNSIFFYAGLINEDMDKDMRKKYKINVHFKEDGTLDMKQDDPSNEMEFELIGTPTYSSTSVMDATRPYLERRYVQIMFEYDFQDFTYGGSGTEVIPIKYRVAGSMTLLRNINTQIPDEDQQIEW
7. Clec49 (Caenorhabditis elegans) (protein) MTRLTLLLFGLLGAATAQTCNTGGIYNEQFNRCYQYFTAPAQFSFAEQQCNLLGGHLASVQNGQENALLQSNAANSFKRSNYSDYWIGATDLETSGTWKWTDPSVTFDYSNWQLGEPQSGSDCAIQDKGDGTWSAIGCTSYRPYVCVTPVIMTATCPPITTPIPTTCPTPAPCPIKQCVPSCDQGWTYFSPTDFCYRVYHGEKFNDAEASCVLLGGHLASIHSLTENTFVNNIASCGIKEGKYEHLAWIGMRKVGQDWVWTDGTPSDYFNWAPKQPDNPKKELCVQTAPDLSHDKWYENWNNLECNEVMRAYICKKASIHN

Result:
[-0.539, -0.116, 0, -0.213, -0.505, -0.526, -0.075]
